Target: DA receptor
Test: Radioligand binding assay: displacement of ^3 H-5,6-dihydroxy-N,N-dipropyl-2-aminotetralin (DA receptor agonist) from homogenates of rat corpus striatum
Settings: mean of 3 independent experiments each in triplicate, 10^-11 to 10^-5 M; read-out: IC50 (concentration of drug required to inhibit the specific binding by 50%)

Compound	Unit String	IC50
CCCN1CCOC2c3ccccc3CCC21 (centres unmarked) [Compound A]	nM	110
CCCN1CCOC2c3cccc(O)c3CCC21 (centres unmarked) [Compound B]	nM	80
CCCN1CCO[C@@H]2c3cccc4[nH]cc(c34)C[C@H]21 [RU 29717, N-PROPYL-9-OXAERGOLINE, reference compound]	nM	3
CCCN1CCOC2c3cc(O)ccc3CCC21 (centres unmarked) [Compound C]	nM	2.8
CN1CCc2cccc3c2[C@H]1Cc1ccc(O)c(O)c1-3 [Apomorphine, reference compound]	nM	3.2

Hello, the source for this data is patent US4540691A, in case you need it.
